Measured values drawn from patent US20250320281A1 for this set.

target: HIV-1 Env of isolate CAAN (clade B pseudovirus) (HIV-1); test: cell-based or functional assay
METRIC: IC50 (neutralization, TZM-bl pseudovirus assay) (µg/mL)
One number for each entry, in µg/mL.

[ask] Name the reported IC50 (neutralization, TZM-bl pseudovirus assay) value associated with the binder 1489_I13 (PG16) (TCN-120) (antibody, V domains shown) VH: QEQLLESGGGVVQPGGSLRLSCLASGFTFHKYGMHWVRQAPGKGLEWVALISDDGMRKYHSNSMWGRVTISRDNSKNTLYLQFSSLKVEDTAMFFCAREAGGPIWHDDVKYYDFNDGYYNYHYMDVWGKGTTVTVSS VL: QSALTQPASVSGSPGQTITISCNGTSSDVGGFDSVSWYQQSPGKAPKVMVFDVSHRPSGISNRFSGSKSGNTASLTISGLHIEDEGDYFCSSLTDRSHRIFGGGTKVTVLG
[reply] 24.9
